# Test system: HepG2
# REPORTED_CONDITIONS: human, hepg2 cells, 48 h
As shown below, each of these molecules has a reported Log AC50 (M) value.
Could you give me the number in M? Just the number is fine.

// solved cases for Log AC50 (M) follow
Cc1cccc(NC2=C/C(=N\S(=O)(=O)c3cccs3)c3ccccc3C2=O)c1 ... -4.4643
OC(c1cc(-c2ccc(C(F)(F)F)cc2)nc(C(F)(F)F)c1)C1CCCCN1 (centres unmarked) ... -4.3643
CCCCN1C(=O)c2[nH]nc(-c3ccccc3O)c2C1c1ccc(OCc2ccccc2)cc1 (centres unmarked) ... -4.3643
COc1ccc(/C=N/Nc2nc(Nc3ccccc3)nc(N3CCCC3)n2)cc1[N+](=O)[O-] ... -4.5643
CN(C)CCNC(=O)c1cc2c(s1)-c1ccc(Cl)cc1SC2 ... -4.4643

Consider the molecule CCN1CCN(c2cc(C)c3cc(NC(=O)/C=C/c4ccc(OCCC(C)C)cc4)ccc3n2)CC1 and give its measured Log AC50 (M).
-4.5143

Consider the molecule Cc1nc(C)c(C(=O)N2CC(Oc3ccc(-c4noc(-c5ccccc5)n4)cc3)C2)s1 and give its measured Log AC50 (M).
-4.5143

Consider the molecule O=C(c1ccco1)N1CCCN(c2cc(-c3ccc(Br)cc3)n[nH]2)CC1 and give its measured Log AC50 (M).
-4.3643
